# Test system: Enterococcus faecium
# Method: Antibacterial activity against vancomycin-resistant VanA phenotype of Enterococcus faecium ATCC 51559 assessed as induction of cytoplasmic membrane permeabilization at 10 uM measured for 10 mins by propidium iodide uptake assay
# Type: functional, organism-based
Activity calls are given as the source filed them. No cut-off for these calls is given here.
Result category, one only: active, inactive

Sample answers from the record:
1. CCCCCCCC[N+](C)(C)CCCNC(=O)[C@H]1NC(=O)[C@H]2NC(=O)[C@H](NC(=O)[C@@H]3NC(=O)[C@H](CC(N)=O)NC(=O)[C@H](NC(=O)[C@@H](CC(C)C)NC)[C@H](O)c4ccc(c(Cl)c4)Oc4cc3cc(c4O[C@@H]3O[C@H](CO)[C@@H](O)[C@H](O)[C@H]3O[C@H]3C[C@](C)(N)[C@H](O)[C@H](C)O3)Oc3ccc(cc3Cl)[C@H]2O)c2ccc(O)c(c2)-c2c(O)cc(O)cc21.O=C([O-])C(F)(F)F ... active
2. CCCCCCCCCCCCCC[N+](C)(C)CCCNC(C)=O ... inactive
3. CN[C@H](CC(C)C)C(=O)N[C@H]1C(=O)N[C@@H](CC(N)=O)C(=O)N[C@H]2C(=O)N[C@H]3C(=O)N[C@H](C(=O)N[C@H](C(=O)O)c4cc(O)cc(O)c4-c4cc3ccc4O)[C@H](O)c3ccc(c(Cl)c3)Oc3cc2cc(c3O[C@@H]2O[C@H](CO)[C@@H](O)[C@H](O)[C@H]2O[C@H]2C[C@](C)(N)[C@H](O)[C@H](C)O2)Oc2ccc(cc2Cl)[C@H]1O [VANCOMYCIN] ... inactive

Next item in the queue.
Query: recorded result category for `CC[N+](C)(C)CCCNC(=O)[C@H]1NC(=O)[C@H]2NC(=O)[C@H](NC(=O)[C@@H]3NC(=O)[C@H](CC(N)=O)NC(=O)[C@H](NC(=O)[C@@H](CC(C)C)NC)[C@H](O)c4ccc(c(Cl)c4)Oc4cc3cc(c4O[C@@H]3O[C@H](CO)[C@@H](O)[C@H](O)[C@H]3O[C@H]3C[C@](C)(N)[C@H](O)[C@H](C)O3)Oc3ccc(cc3Cl)[C@H]2O)c2ccc(O)c(c2)-c2c(O)cc(O)cc21` in this test
inactive

Cited source for all entries: ChEMBL document CHEMBL3259723
